- Test system: H1299 p53 Y220C
- measurement notes: Cell Proliferation Assay (CellTiter-Glo, CTG), H1299 p53 Y220C (NClH1299-inducible p53 Y220C)
- Format: cell-based
- condition description: Homo sapiens, NCI-H1299, 120 h, CellTiter-Glo, H1299 p53 Y220C, 5 days
outcome measure: IC50

- compound: "CNC(=O)c1ccc(OC)c(NCC#Cc2nc3c(N[C@@H]4CCN(C)C[C@@H]4F)cccn3c2SC(F)(F)F)n1 [Example 158]"
  outcome measure: "IC50"
  observed result: "< 750 nM"
- compound: "CNC(=O)c1ccc(NCC#Cc2nc3c(NC4CCN(C)CC4)cc(NC(=O)OC)cn3c2CC(F)(F)F)c(OC)c1 [Example 45]"
  outcome measure: "IC50"
  observed result: "> 3000 nM"
- compound: "CNC(=O)c1ccc(OC)c(NCC#Cc2nc3c(NC4CC5(C4)CN(CC(F)F)C5)cccn3c2SC(F)(F)F)c1 [Example 204]"
  outcome measure: "IC50"
  observed result: "750 to 1500 nM"
- compound: "COc1cc(C(=O)N2CCC2)ccc1NCC#Cc1nc2c(N[C@@H]3CCN(C)C[C@@H]3F)cccn2c1SC(F)(F)F [Example 87]"
  outcome measure: "IC50"
  observed result: "< 750 nM"
- compound: "CNC(=O)c1cccc(NCC#Cc2nc3c(N[C@@H]4CCN(C)C[C@@H]4F)cccn3c2SC(F)(F)F)c1 [Example 149]"
  outcome measure: "IC50"
  observed result: "< 750 nM"

---

This section presents compounds with their documented IC50 values.
- System: H1299 p53 Y220C
- measurement notes: Cell Proliferation Assay (CellTiter-Glo, CTG), H1299 p53 Y220C (NClH1299-inducible p53 Y220C)
- Type: cell-based
- condition description: Homo sapiens, NCI-H1299, 120 h, CellTiter-Glo, H1299 p53 Y220C, 5 days
- Method: Inducible p53 Y220C and R273H constructs (Tet-One inducible expression system; Takara) were stably expressed in NClH1299 cells by lentiviral transduction. NUGC3, A549, BxPC3, T3M4, HuH7, HCC2935, MFE296, NClH1299, NClH1299-inducible p53 Y220C, and NClH1299-inducible p53 R273H cell lines were used for cell proliferation assay. […] The luminescent signal was measured by PheraStar microplate reader and IC50 was calculated.
outcome measure: IC50

- chemical string: "CNC(=O)c1ccc(NCC#Cc2nc3c(N[C@H]4CCc5nncn5C4)cccn3c2SC(F)(F)F)c(OC)c1"
  observed result: "> 3000 nM"
- chemical string: "CNC(=O)c1cc(NCC#Cc2cc3c(N[C@@H]4CCN(C)C[C@@H]4F)nccn3c2SC(F)(F)F)c2nccn2c1"
  observed result: "< 750 nM"
- chemical string: "CNC(=O)c1ccc(OC)c(NCC#Cc2cc3c(N[C@@H]4CCN(C)C[C@@H]4F)cccn3c2SC(F)(F)F)c1"
  observed result: "< 750 nM"
- chemical string: "CNC(=O)c1ccc(NCC#Cc2nc3c(N[C@@H]4CCC(=O)NC4)cccn3c2SC(F)(F)F)c(OC)c1"
  observed result: "1500 to 3000 nM"
- chemical string: "CNC(=O)c1ccc(OC)c(NCC#Cc2cc3c(N[C@@H]4CN(C)C[C@@H]4F)nccn3c2SC(F)(F)F)c1"
  observed result: "< 750 nM"
